assay: Pharmacokinetics in rats (oral and intravenous); assay type: in vivo, SD rats; settings: male, SD, rat, plasma, 10 mg/kg (PO)
property label: Tmax
State the value with its unit after it.

*Q* Look up Tmax for this molecule: Cn1c(=O)n(CCCO)c(=O)c2c1nc(C1(F)CCC(F)(F)CC1)n2Cc1ccc(F)c(Cl)c1
*A* 30 min

----------
test: Pharmacokinetics in rats (oral and intravenous); assay type: in vivo, SD rats; conditions: male, SD, rat, plasma, 1 mg/kg (IV), read-out: VSS
property label: Vd (L/kg)
The answer is to be given in L/kg; state only the numeric part.

*Q* Name the reported Vd value associated with the molecule Cn1c(=O)n(CCCO)c(=O)c2c1nc(C1(F)CCC(F)(F)CC1)n2Cc1ccc(F)c(Cl)c1
*A* 2.94
